Where do the numbers come from? From patent US20140120095A1.

target: T1, mouse DLL4 expressed on CHO cells (mouse, UniProt Q9JI71 27-686); assay: FACS on CHO-mDLL4 cells
T1 construct: whole, on cells; also called mDLL4; CHO-mDLL4
T1 sequence (Q9JI71 27-686): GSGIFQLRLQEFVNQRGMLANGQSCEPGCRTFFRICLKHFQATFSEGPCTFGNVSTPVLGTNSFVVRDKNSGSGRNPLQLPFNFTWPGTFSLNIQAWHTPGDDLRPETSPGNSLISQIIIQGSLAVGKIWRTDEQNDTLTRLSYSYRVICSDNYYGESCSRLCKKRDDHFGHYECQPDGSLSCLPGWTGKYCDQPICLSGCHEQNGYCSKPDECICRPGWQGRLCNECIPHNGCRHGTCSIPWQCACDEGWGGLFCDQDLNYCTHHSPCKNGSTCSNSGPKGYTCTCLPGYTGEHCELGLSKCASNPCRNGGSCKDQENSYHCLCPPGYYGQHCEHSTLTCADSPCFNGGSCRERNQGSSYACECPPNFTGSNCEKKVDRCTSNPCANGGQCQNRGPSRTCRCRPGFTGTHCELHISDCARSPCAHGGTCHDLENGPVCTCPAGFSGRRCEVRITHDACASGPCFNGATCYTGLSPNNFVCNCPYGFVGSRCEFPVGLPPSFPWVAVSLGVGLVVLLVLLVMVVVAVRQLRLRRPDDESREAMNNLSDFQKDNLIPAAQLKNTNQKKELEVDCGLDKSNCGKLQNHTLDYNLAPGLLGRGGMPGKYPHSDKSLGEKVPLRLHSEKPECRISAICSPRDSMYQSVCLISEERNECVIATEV
value type: pEC50
When answering, recall that pEC50 equals minus log10 of the concentration in mol/L, and write that number alone.

{"binder": "DLLBII015 (VHH, not shown: small tags and cut ends) VHH: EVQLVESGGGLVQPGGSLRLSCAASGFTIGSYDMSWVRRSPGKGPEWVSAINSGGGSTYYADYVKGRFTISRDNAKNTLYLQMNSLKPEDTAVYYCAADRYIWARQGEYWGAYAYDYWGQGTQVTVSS", "numeric value": 8.15}
{"binder": "DLLBII129E11 (VHH, not shown: small tags and cut ends) VHH: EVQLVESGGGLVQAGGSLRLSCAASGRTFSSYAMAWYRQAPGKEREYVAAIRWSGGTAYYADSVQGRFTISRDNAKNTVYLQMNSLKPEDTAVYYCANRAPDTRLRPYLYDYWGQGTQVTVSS", "numeric value": 8.39}

--- query ---
Form field pEC50, entry DLLBII133G05 (VHH, not shown: small tags and cut ends) VHH: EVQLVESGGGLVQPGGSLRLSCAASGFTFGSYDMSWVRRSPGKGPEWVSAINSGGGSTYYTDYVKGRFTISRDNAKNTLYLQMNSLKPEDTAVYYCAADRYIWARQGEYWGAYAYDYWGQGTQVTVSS : 8.55
